Origin of measurements: ChEMBL document CHEMBL5058577

Population Apoptotic (%) values, listed per item
System: U2OS
Procedure Summary: Multiplex assay against U2OS
Assay type: toxicity, cell-based
Settings: human, 24 h, 1 µM, compound concentration 1 uM, replicate 2
Respond with the bare value in %.

Below, 3 compounds whose answers are already recorded.
{"columns": ["Compound", "Population Apoptotic (%)"],
 "data": [
  ["CN1CCN(c2nc3cc(C(F)(F)F)ccc3n3cccc23)CC1.O=C(O)/C=C\\C(=O)O.O=C(O)/C=C\\C(=O)O", 92],
  ["CN1CCN2c3ncccc3Cc3ccccc3C2C1 (stereo not drawn)", 100],
  ["CN(C)CCCc1cc(C(=O)Nc2ccc(-c3ccncc3)cc2)ccc1O.Cl.Cl", 94]
]}

Summary for this compound, CCCn1c(=O)c2[nH]c(C3CCCC3)nc2n(CCC)c1=O : Population Apoptotic (%) is 87

Summary for this compound, O=C(NCCO)c1cccc(-c2cc(Nc3ccc(OC(F)(F)F)cc3)ncn2)c1 : Population Apoptotic (%) is 86

Summary for this compound, CCCC(CCC)C(=O)O : Population Apoptotic (%) is 100

Summary for this compound, CNC[C@H](O)c1ccc(O)c(O)c1 [EPINEPHRINE] : Population Apoptotic (%) is 75

Summary for this compound, Cc1ccc(C(C)(O)c2nc3ccccc3s2)c(C)c1 (stereo not drawn) : Population Apoptotic (%) is 90
